Experiment: soluble on expression in E. coli; label from the status in PepcDB or PDB records
measure: soluble on expression in E. coli

{"residueSequence": "GLLMEGDEPAGGKWNFDTENRKPAAPDLLRPRPLRFEPDAEVRAVLDLVEARFPRHFGRLRPFHWATDRAEALRALDHFIRESLPRFGDEQDAMLADDPFLSHALLSSSMNLGLLGPMEVCRRAETEWREGRAPLNAVEGFIRQILGWREYVRGIWTLSGPDYI", "measure": "soluble on expression in E. coli", "result": "not soluble"}
{"residueSequence": "MSSQQQESEASGYNTSASSEFGSLEDSHQFVSPVTRHASKRRAVENVDHLDELMKSSMVLSPEKRLRLNTSNDSNLVRNTARSPDSSMNGRPQTRRSTSSDIEISPRVRAMRSTSGSSMDLVRTVSSFCTDSISPKFFTNHGSTTRKRTENGSIYSRHRLGATFSPLVAGAKRKMATPSQSLKRQEKQSPLESRHGGLRSRGTPQRKLLLCDRLKVLN", "measure": "soluble on expression in E. coli", "result": "not soluble"}
